target: h-NTPDase1 (Homo sapiens, UniProt P49961)
Sequence (P49961 whole entry): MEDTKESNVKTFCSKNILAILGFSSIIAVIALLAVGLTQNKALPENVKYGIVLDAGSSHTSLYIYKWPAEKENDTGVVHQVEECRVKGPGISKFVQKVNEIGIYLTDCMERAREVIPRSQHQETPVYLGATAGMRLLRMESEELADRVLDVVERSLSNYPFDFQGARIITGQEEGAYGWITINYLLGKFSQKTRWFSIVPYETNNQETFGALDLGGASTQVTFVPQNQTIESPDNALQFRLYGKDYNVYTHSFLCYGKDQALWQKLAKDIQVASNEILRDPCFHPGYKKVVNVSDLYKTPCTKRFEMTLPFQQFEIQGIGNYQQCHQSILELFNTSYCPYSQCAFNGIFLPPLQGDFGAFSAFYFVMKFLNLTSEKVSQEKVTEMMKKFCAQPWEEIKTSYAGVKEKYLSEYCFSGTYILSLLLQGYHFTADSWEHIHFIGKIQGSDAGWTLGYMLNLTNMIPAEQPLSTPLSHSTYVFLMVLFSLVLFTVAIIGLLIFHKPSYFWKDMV
Observable: IC50 (nM)
// units = nM; emit number, no label

The measured IC50 that O=C(c1cc(S(=O)(=O)Nc2ccc(Br)cc2)ccc1Cl)N1CCOCC1 [3i] showed for h-NTPDase1 (Homo sapiens, UniProt P49961) is 2880

====

Target: UniProt:Q9Y5L3
Sequence (Q9Y5L3 1-495): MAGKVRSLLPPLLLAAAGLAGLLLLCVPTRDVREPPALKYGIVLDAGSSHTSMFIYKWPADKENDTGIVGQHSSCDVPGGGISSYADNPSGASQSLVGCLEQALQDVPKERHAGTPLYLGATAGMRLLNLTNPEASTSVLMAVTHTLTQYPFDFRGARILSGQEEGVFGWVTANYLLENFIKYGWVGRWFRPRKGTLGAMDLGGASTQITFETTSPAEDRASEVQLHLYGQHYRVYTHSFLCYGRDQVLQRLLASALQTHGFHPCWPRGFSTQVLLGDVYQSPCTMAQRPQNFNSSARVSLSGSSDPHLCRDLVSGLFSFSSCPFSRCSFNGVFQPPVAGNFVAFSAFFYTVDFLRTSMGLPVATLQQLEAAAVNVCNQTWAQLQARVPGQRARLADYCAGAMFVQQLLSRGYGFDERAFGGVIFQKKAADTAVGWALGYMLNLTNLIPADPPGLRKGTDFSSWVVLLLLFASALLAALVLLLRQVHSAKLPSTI
Observable: IC50 (nM)

a. COc1ccc(NC(=O)c2cccc(S(=O)(=O)N3CCOCC3)c2)cc1
b. O=C(NC1CC1)c1cc(S(=O)(=O)NC2CC2)ccc1Cl
Prompt: Lab note: check whether a or b shows the higher recorded IC50. Write down the label attached to your selection.
Response: a

====

Target: h-NTPDase3 (Homo sapiens, UniProt O75355)
Sequence (O75355 1-529): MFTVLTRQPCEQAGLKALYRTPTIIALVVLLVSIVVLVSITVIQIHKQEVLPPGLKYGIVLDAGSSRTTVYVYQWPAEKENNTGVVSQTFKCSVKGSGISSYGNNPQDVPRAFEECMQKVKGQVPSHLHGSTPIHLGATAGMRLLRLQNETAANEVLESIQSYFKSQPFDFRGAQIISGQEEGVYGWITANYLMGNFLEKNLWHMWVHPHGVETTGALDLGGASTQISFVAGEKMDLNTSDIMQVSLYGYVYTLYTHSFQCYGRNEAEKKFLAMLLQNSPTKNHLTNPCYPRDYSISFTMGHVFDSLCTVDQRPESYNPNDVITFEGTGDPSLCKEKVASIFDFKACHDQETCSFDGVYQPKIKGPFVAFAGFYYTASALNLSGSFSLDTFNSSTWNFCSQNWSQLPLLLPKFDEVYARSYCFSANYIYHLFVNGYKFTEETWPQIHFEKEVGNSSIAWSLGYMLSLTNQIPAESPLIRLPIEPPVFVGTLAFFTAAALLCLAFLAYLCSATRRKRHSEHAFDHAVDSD
Observable: IC50 (µM)

Here is how some molecules turned out for IC50.
INSERT INTO results (given_smiles, observable, observed) VALUES
  ('COc1ccc(NC(=O)c2cc(S(=O)(=O)NCc3ccccc3)ccc2Cl)cc1', 'IC50', 3.16),
  ('COc1ccc(NC(=O)c2cccc(S(=O)(=O)N3CCOCC3)c2)cc1', 'IC50', 6.71);

A. O=C(c1cc(S(=O)(=O)Nc2ccc(Br)cc2)ccc1Cl)N1CCOCC1
B. O=C(NC1CC1)c1cc(S(=O)(=O)NC2CC2)ccc1Cl
Prompt: Please choose the item with the lower IC50 value from this pair: A and B Write down the label attached to your selection.
Response: B
(B: 0.2 µM, A: 0.72 µM)
